Biological target: Prostaglandin F2-alpha receptor (Homo sapiens, UniProt P43088)
Sequence (P43088 whole entry): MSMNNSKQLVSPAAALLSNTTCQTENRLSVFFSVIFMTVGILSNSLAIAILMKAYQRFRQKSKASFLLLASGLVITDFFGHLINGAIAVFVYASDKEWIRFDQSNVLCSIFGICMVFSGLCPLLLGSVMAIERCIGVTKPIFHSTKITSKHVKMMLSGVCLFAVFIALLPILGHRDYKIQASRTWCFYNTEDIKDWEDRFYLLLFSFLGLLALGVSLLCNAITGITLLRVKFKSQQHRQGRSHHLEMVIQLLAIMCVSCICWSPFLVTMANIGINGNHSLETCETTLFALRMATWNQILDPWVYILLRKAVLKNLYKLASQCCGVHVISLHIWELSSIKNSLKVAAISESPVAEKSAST
Assay: Agonist activity at human FP receptor expressed in human Chem1 cells assessed as increase in intracellular calcium level by fluorescence based analysis
readout label: EC50

[
  {
    "molecule": "O=C(O)c1csc([C@H]2CC[C@@H]3[C@@H](/C=C/COc4ccccc4)[C@H](O)C[C@@H]3O2)n1",
    "reported": "> 10 µM"
  }
]

I'm curious: which EC50 was measured for O=C(O)c1csc([C@H]2CC[C@@H]3[C@@H](CCCOc4ccccc4)[C@H](O)C[C@@H]3O2)n1 tested on Prostaglandin F2-alpha receptor (Homo sapiens, UniProt P43088)?
> 10 µM

API: value(readout= EC50, system= Prostaglandin F2-alpha receptor (Homo sapiens, UniProt P43088), query= O=C(O)c1csc([C@H]2CC[C@@H]3[C@@H](CCOc4ccccc4)[C@H](O)C[C@@H]3O2)n1 )
> 10 µM

Short answer please: EC50, Prostaglandin F2-alpha receptor (Homo sapiens, UniProt P43088), entry O=C(O)c1csc([C@H]2CC[C@@H]3C(COc4ccccc4)[C@H](O)C[C@@H]3O2)n1 (single isomer, unassigned)
> 10 µM

====

Biological target: Prostaglandin E2 receptor EP2 subtype (Homo sapiens)
Sequence (P43116 whole entry): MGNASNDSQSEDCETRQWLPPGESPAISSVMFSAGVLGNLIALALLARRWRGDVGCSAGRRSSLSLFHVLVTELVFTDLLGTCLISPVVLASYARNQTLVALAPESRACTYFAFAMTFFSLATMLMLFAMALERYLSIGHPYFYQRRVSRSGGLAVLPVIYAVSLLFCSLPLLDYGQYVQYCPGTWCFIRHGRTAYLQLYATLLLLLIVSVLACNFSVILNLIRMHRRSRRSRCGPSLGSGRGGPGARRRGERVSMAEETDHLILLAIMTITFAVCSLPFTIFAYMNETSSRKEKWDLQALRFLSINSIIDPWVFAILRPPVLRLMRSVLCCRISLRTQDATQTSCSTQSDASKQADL
Assay: Agonist activity at human EP2 receptor expressed in CHO cells assessed as increase in intracellular cAMP level after 30 mins by HTRF method
Assay type: functional, cell-based
pEC50: −log10 of the molar value.
readout label: pEC50

[
  {
    "molecule": "O=C(O)c1csc([C@H]2CC[C@@H]3C(COc4cccc(F)c4)[C@H](O)C[C@@H]3O2)n1 (single isomer, unassigned)",
    "reported": 8.27
  }
]

A: O=C(O)c1csc([C@H]2CC[C@@H]3[C@@H](CCOc4ccccc4)[C@H](O)C[C@@H]3O2)n1
B: O=C(O)c1csc([C@H]2CC[C@@H]3[C@@H](/C=C/CCCOc4ccccc4)[C@H](O)C[C@@H]3O2)n1
C: Cc1cccc(OCC2[C@H](O)C[C@@H]3O[C@@H](c4nc(C(=O)O)cs4)CC[C@H]23)c1 (single isomer, unassigned)
Output the entries ranked by pEC50 from maximum down to minimum. Please, when replying, give the labels in the order that was requested.
A, C, B
(A: 8.85, C: 8.44, B: 7.89)

The reported measurements were obtained from ChEMBL document CHEMBL3804774.
